# reported Z score; entries follow
Tested on: Plasmodium falciparum
Assay: Primary screen in NF54 nanoGlo assay, in single point, at 2uM, 72h
Type: functional, Erythrocyte
Conditions: timepoint 72 hour
Screen size: about 150,000 compounds; about 540 (0.36%) showed an effect of 50% or more. The list comes from a sample in which strong results are over-represented; it also holds close analogues and randomly drawn compounds.

compound	Z score
Cc1nc2ccccc2c(O)c1CC[C@H](C)NC1CCNCC1	0.51
COCCC(=O)NC1COCC1Cc1ccnc2ccccc12 (centres undefined)	-0.24
O[C@H]1CCN(Cc2ccccc2CNc2cccc(-n3ccnc3)n2)C1	-14.28
Nc1cc(N2CCC(N3CCc4ccccc4C3)CC2)nc(N2CCOCC2)n1	-0.91

* * *

Test system: Plasmodium falciparum
Experiment: Primary screen in NF54 nanoGlo assay, in single point, at 2uM, 72h; a lower Z score goes with more inhibition
Format: functional, Erythrocyte
Details: timepoint 72 hour
In all, about 150,000 compounds went through this assay and about 540 (0.36%) showed an effect of 50% or more. This is one part of a sample in which strong results are shown more often than they occur.
property: Z score

molecule	testSystem	property	measured
c1ccc(CN2CCC(CCNC[C@@H]3CCCN4CCCC[C@H]34)CC2)cc1	Plasmodium falciparum	Z score	-10.03
CNC(=O)CN1CCC(Nc2ncnc3ccc(C(C)C)cc23)CC1	Plasmodium falciparum	Z score	-0.48
O=C(c1cccc(OCCc2ccccc2)c1)N1CC2COCCC2(C(=O)O)C1 (stereo unspecified)	Plasmodium falciparum	Z score	0.52
CCc1ccc2nc(NC[C@H]3CCCN3C)cc(C)c2c1	Plasmodium falciparum	Z score	0.32
Fc1ccccc1-c1nnc2ccc(NCc3ccccc3OC3CCCC3)nn12	Plasmodium falciparum	Z score	0.8
CC(C)CCOc1ccc2[nH]c(-c3cc(N4CCC[C@@H]4CS(C)(=O)=O)ccn3)cc2c1	Plasmodium falciparum	Z score	-20.97
Cc1noc(-c2ccnc(NC[C@H]3CCN(CC(F)(F)F)C3)c2)n1	Plasmodium falciparum	Z score	-0.25
Cc1cccc(-c2cccc(N3CCC(NCc4cc(C)[nH]n4)CC3)c2)c1	Plasmodium falciparum	Z score	1.27
CCN1CCN(CC2CN(C/C=C/c3ccc(OC)cc3)CC2CO)CC1 (stereo unspecified)	Plasmodium falciparum	Z score	0.7
Cc1cc(N2CCC(N(C)Cc3ccc4nsnc4c3)CC2)nc(N)n1	Plasmodium falciparum	Z score	-3.91
CN(CC(=O)N[C@H]1CCCN(c2cnccn2)C1)C1CCNCC1	Plasmodium falciparum	Z score	1.05
NS(=O)(=O)Cc1cccc(NC(=O)c2cc(F)cc3c(=O)c4cccc(F)c4[nH]c23)c1	Plasmodium falciparum	Z score	1.68
Cc1noc(-c2ccnc(NC[C@@H](c3ccccn3)N3CCOCC3)c2)n1	Plasmodium falciparum	Z score	-18.79
CN(C)Cc1ccccc1NC(=O)c1cccc2c(=O)c3ccccc3[nH]c12	Plasmodium falciparum	Z score	0.38
Cc1cc(=O)n(CCN2CCN(C(=O)c3ccc[nH]3)CC2)c(=O)[nH]1	Plasmodium falciparum	Z score	1.92
CCN1CCC[C@@H]1CN(CCN(C)C)C(=O)c1ccc(-c2cncnc2)cc1F	Plasmodium falciparum	Z score	-0.24
CN(C)C1(CNc2nc(C(F)(F)F)nc3cc4c(cc23)OCO4)CCCCCC1	Plasmodium falciparum	Z score	-8.21
CN(CCCn1ccnc1)c1ccnc2cc(Br)ccc12	Plasmodium falciparum	Z score	-17.18
COc1ccc2[nH]cc(C3=CCN(c4ccc5nnc(-c6ccccc6F)n5n4)CC3)c2c1	Plasmodium falciparum	Z score	-8.85
Cc1cc(N2CCC(NCc3ccc(C(F)(F)F)cc3F)CC2)nc(N)n1	Plasmodium falciparum	Z score	-2.1
c1cc(-c2noc(C34CCCN(CCC3)C4)n2)cc(-n2ccnc2)c1	Plasmodium falciparum	Z score	-1.87
COc1cccc(-c2nc3cc(C#N)ccc3[nH]2)n1	Plasmodium falciparum	Z score	0.04
Cc1nc(N2CCN(CC(=O)NC3CCCCC3)CC2)c2cc[nH]c2n1	Plasmodium falciparum	Z score	2.32
CN1CCC[C@@H]1CCNc1ncnc2cccc(F)c12	Plasmodium falciparum	Z score	-1.43
COCC(O)CN1CCC(NC2CCCNc3ccccc32)CC1 (stereo unspecified)	Plasmodium falciparum	Z score	1.28
Cc1cc(N2CCC(NC3CCCC3Cc3ccc(F)cc3)CC2)nc(N)n1 (stereo unspecified)	Plasmodium falciparum	Z score	-14.52
Cc1cc(N2CC3COCCC3(C(=O)O)C2)nc2ccc(F)cc12 (stereo unspecified)	Plasmodium falciparum	Z score	-13.26
O=C(NCC1CC1)c1cc2c(OCc3ccc(Cl)cc3)cccc2[nH]1	Plasmodium falciparum	Z score	-9
CCOc1cc2nccc(N3C[C@H]4CN(C)C[C@H]4C3)c2cc1OCC	Plasmodium falciparum	Z score	-21.22
O=C(NC1CNCCC1O)c1cc2c(Cl)cccc2[nH]1 (stereo unspecified)	Plasmodium falciparum	Z score	0.71
Fc1ccc(N2CCC(N[C@@H]3COC4(CCNCC4)C3)CC2)cc1F	Plasmodium falciparum	Z score	-4.05
COCCN1CCC[C@@]2(CCN(c3ccnc4cc(Cl)ccc34)C2)C1	Plasmodium falciparum	Z score	-17.32
Cc1ccc(-c2cccc3c(C(=O)NCCCN4CCC(N5CCCCC5)CC4)cc(C)nc23)cc1	Plasmodium falciparum	Z score	-16.9
N[C@H]1CC[C@@H](NC2CCN(c3ccc(F)c(F)c3)CC2)CC1	Plasmodium falciparum	Z score	-9.21
COCCNc1nc(N[C@@H](C)c2ccccc2)c2ccccc2n1	Plasmodium falciparum	Z score	-11.2
OC1CCN(Cc2cccc(NCc3cccc(OCCn4ccnc4)c3)c2)CC1	Plasmodium falciparum	Z score	0.55
